# Assay remarks: Confirmatory growth inhibition assay, mycobacterium tuberculosis h37rv, with cytotoxicity (AID 1332)
# Condition summary: M. tuberculosis H37Rv growth inhibition
About 170 (15%) of roughly 1,100 compounds were called active. The rule behind the calls is not given here. Only a sample is shown.
Labels: active, inactive

compound=CC1=CC(=O)C2=C(C)C[C@H](O)[C@@H]3[C@H](OC(=O)[C@H]3C)[C@@H]12 answer_label=inactive
compound=CC1=C(C(=O)O)N2C(=O)[C@@H](NC(=O)[C@H](N)c3ccc(O)cc3)[C@H]2SC1 answer_label=inactive
compound=CC(=O)Nc1ccc(O)cc1 answer_label=inactive
compound=COc1ncnc(NS(=O)(=O)c2ccc(N)cc2)c1OC answer_label=inactive
compound=CN1CCC(=C2c3ccccc3CCc3sccc32)CC1 answer_label=inactive
compound="CCC1NC(=O)c2cc(S(N)(=O)=O)c(Cl)cc2N1 (centres undefined)" answer_label=inactive
compound="CN(Cc1cnc2nc(N)nc(N)c2n1)c1ccc(C(=O)NC(CCC(=O)O)C(=O)O)cc1 (centres undefined)" answer_label=inactive
compound=CN1CCc2c(c3ccccc3n2Cc2ccccc2)C1 answer_label=inactive
compound=Clc1ccc(Cn2c(CN3CCCC3)nc3ccccc32)cc1 answer_label=active
compound=COC1=CC(=O)C[C@@H](C)[C@]12Oc1c(Cl)c(OC)cc(OC)c1C2=O answer_label=inactive
compound=COc1cnc(NS(=O)(=O)c2ccc(N)cc2)nc1 answer_label=inactive
compound="NCC1CCC(C(=O)O)CC1 (centres undefined)" answer_label=inactive
compound=CN1CCC(=C2c3ccccc3C=Cc3ccccc32)CC1 answer_label=active
compound=CN1CCC(=C2c3ccccc3Sc3ccccc32)CC1 answer_label=active

###

# Assay remarks: Confirmatory growth inhibition assay, mycobacterium tuberculosis h37rv, with cytotoxicity (AID 1332)
# Condition summary: M. tuberculosis H37Rv growth inhibition
Out of some 1,100 compounds screened, about 170 (15%) were called active. No rule for the calls is given here. The list is a sample of the results.
Labels: active, inactive

compound=Cc1[nH]ccc2c1[nH]c1cc(=O)ccc12 answer_label=inactive
compound=CCc1cc(C(N)=S)ccn1 answer_label=active
compound=C[N+]1(C)CCC[C@H]1C(=O)[O-] answer_label=inactive
compound="C[C@H]1CCC2(NC1)O[C@H]1C[C@H]3[C@@H]4CC[C@H]5C[C@@H](O[C@@H]6O[C@H](CO)[C@H](O[C@@H]7O[C@H](CO)[C@@H](O)[C@H](O[C@@H]8OC[C@@H](O)[C@H](O)[C@H]8O)[C@H]7O[C@@H]7O[C@H](CO)[C@@H](O)[C@H](O)[C@H]7O)[C@H](O)[C@H]6O)CC[C@]5(C)[C@H]4CC[C@]3(C)[C@H]1[C@@H]2C (some centres not stated)" answer_label=inactive
compound=O=C(CCCN1CCC(O)(c2ccc(Cl)cc2)CC1)c1ccc(F)cc1 answer_label=inactive
compound=C=C1c2cccc(O)c2C(O)=C2C(=O)[C@]3(O)C(O)=C(C(N)=O)C(=O)[C@@H](N(C)C)[C@@H]3[C@@H](O)[C@H]12 answer_label=active
compound=C[C@@H]1C[C@H]2[C@@H]3C[C@H](F)C4=CC(=O)C=C[C@]4(C)[C@@]3(Cl)[C@@H](O)C[C@]2(C)[C@H]1C(=O)COC(=O)C(C)(C)C answer_label=inactive
compound="CCC(=O)OC1(C(=O)CCl)[C@@H](C)C[C@H]2[C@@H]3CCC4=CC(=O)C=C[C@]4(C)[C@@]3(F)[C@@H](O)C[C@@]21C (some centres not stated)" answer_label=inactive
compound=CN1CC[C@]23c4ccccc4N[C@H]1[C@]21CCN(C)[C@H]3Nc2ccccc21 answer_label=inactive
compound="CCCC(=O)Nc1ccc(OCC(O)CNC(C)C)c(C(C)=O)c1 (configuration not stated)" answer_label=inactive
compound=Cc1cc2cc3c(C)cc(=O)oc3c(C)c2o1 answer_label=inactive
compound=C=C[C@]12CN(C)[C@@H]3[C@H]4COC(CC41)[C@]1(C(=O)Nc4ccccc41)[C@@H]32 answer_label=inactive
compound=C[N+]1(C)C[C@@H](O)C[C@H]1C(=O)[O-] answer_label=inactive
compound=C#C[C@]1(OC(C)=O)CC[C@H]2[C@@H]3CCC4=C[C@@H](OC(C)=O)CC[C@@H]4[C@H]3CC[C@@]21C answer_label=inactive
compound=CC1(C)OC(=O)NC1=O answer_label=inactive
compound="CN(C)[C@@H]1C(=O)C(C(=O)NCN2CCCC2)=C(O)[C@@]2(O)C(=O)C3=C(O)c4c(O)cccc4[C@@](C)(O)C3CC12 (some centres not stated)" answer_label=inactive
compound=CN(C)C(=O)C(CCN1CCC(O)(c2ccc(Cl)cc2)CC1)(c1ccccc1)c1ccccc1 answer_label=active

###

# Assay remarks: Confirmatory growth inhibition assay, mycobacterium tuberculosis h37rv, with cytotoxicity (AID 1332)
# Condition summary: M. tuberculosis H37Rv growth inhibition
Out of some 1,100 compounds screened, about 170 (15%) were called active. How the calls were made is not given here. These entries were drawn from the full list. Non-standard residues stand in square brackets, D forms with d. Residues, ends and D or L forms follow the SMILES beside them. *: point of attachment. Sta = CC(C)C[C@H](N)[C@@H](O)CC(=O)O; Isovaleryl = CC(C)CC(=O)*
Labels: class 1 for active, class 0 for inactive

compound=O=S(=O)(O)c1cc(O)ccc1O answer_label="class 0"
compound=COc1ccc2c3c([nH]c2c1)[C@H]1C[C@H]2[C@H](C[C@@H](O)[C@H](OC)[C@H]2C(=O)O)CN1CC3 answer_label="class 0"
compound=COc1cc(/C=C/C(=O)N2CCC=CC2=O)cc(OC)c1OC answer_label="class 1"
compound=COc1cc(C(=O)OCCCN2CCCN(CCCOC(=O)c3cc(OC)c(OC)c(OC)c3)CC2)cc(OC)c1OC answer_label="class 0"
compound="CC(C)CC(=O)N[C@H](C(=O)N[C@H](C(=O)N[C@@H](CC(C)C)[C@@H](O)CC(=O)N[C@@H](C)C(=O)N[C@@H](CC(C)C)[C@@H](O)CC(=O)O)C(C)C)C(C)C (Isovaleryl-VV[Sta]A[Sta]-OH)" answer_label="class 0"

###

# Assay remarks: Confirmatory growth inhibition assay, mycobacterium tuberculosis h37rv, with cytotoxicity (AID 1332)
# Condition summary: M. tuberculosis H37Rv growth inhibition
The whole screen tested about 1,100 compounds, of which about 170 (15%) were called active. The rule behind the calls is not given here. Not all results are given here.
Labels: active, inactive

sample_smiles=CCCc1cc(=O)[nH]c(=S)[nH]1 answer_label=inactive
sample_smiles=COC(=O)C1=CO[C@@H](C)[C@H]2CN3CCc4c([nH]c5ccccc45)[C@@H]3C[C@H]12 answer_label=inactive
sample_smiles=COC(=O)[C@H]1[C@H]2C[C@H]3c4[nH]c5ccccc5c4CCN3C[C@@H]2CC[C@@H]1O answer_label=inactive
sample_smiles=O=C(O)[C@@H]1[C@H]2C[C@H]3c4[nH]c5ccccc5c4CCN3C[C@@H]2CC[C@@H]1O answer_label=inactive
sample_smiles=COC(=O)[C@H]1[C@H]2C[C@@H]3c4[nH]c5cc(OC)ccc5c4CCN3C[C@H]2C[C@@H](OC(=O)/C=C/c2cc(OC)c(OC)c(OC)c2)[C@@H]1OC answer_label=active

###

# Assay remarks: Confirmatory growth inhibition assay, mycobacterium tuberculosis h37rv, with cytotoxicity (AID 1332);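 for IC50: bacteria incubated 7 days before adding Alamar blue readout reagent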
# Condition summary: M. tuberculosis H37Rv growth inhibition; measured here: IC50 H37Rv replicates
The whole screen tested about 1,100 compounds, of which about 170 (15%) were called active. A selection follows.
Property: IC50

molecule=Nc1ccc(S(N)(=O)=O)cc1 data_value="> 20 µg/mL"
molecule=CN(C)C(=O)C(CCN1CCC(O)(c2ccc(Cl)cc2)CC1)(c1ccccc1)c1ccccc1 data_value="10.9 µg/mL"
molecule=O=C(CCCN1CCC(O)(c2ccc(Cl)cc2)CC1)c1ccc(F)cc1 data_value="> 20 µg/mL"
molecule="CCCC(=O)Nc1ccc(OCC(O)CNC(C)C)c(C(C)=O)c1 (stereo not drawn)" data_value="> 20 µg/mL"
molecule=CC1=CC(=O)C2=C(C)C[C@H](O)[C@@H]3[C@H](OC(=O)[C@H]3C)[C@@H]12 data_value="> 20 µg/mL"
molecule=CCC(=O)O[C@@H]1CC(=O)O[C@H](C)C/C=C/C=C/[C@@H](O)[C@H](C)C[C@H](CC=O)[C@H](O[C@@H]2O[C@H](C)[C@@H](O[C@H]3C[C@@](C)(O)[C@@H](OC(=O)CC)[C@H](C)O3)[C@H](N(C)C)[C@H]2O)[C@H]1OC data_value="> 20 µg/mL"
molecule=CC(C)(Sc1cc(C(C)(C)C)c(O)c(C(C)(C)C)c1)Sc1cc(C(C)(C)C)c(O)c(C(C)(C)C)c1 data_value="> 20 µg/mL"
molecule=Nc1ccc(S(=O)(=O)c2ccc(N)cc2)cc1 data_value="9.09 µg/mL"
molecule="CN1C[C@H](C(=O)N[C@]2(C)O[C@@]3(O)[C@@H]4CCCN4C(=O)[C@H](Cc4ccccc4)N3C2=O)CC2c3cccc4[nH]cc(c34)C[C@H]21 (stereo partly drawn)" data_value="> 20 µg/mL"
molecule=C[C@@H]1CC[C@H]2[C@@H](C)C(=O)O[C@@H]3OC4(C)CC[C@@H]1[C@]32OO4 data_value="> 20 µg/mL"
molecule="O=C(OCC(O)CO)c1ccccc1Nc1ccnc2cc(Cl)ccc12 (stereo not drawn)" data_value="> 20 µg/mL"
molecule="O=c1[nH]c(=O)n([C@H]2CC(O)[C@@H](CO)O2)cc1I (stereo partly drawn)" data_value="> 20 µg/mL"
molecule=O=C(CCCN1CCC(O)(c2ccc(Br)cc2)CC1)c1ccc(F)cc1 data_value="> 20 µg/mL"
molecule="COc1c2c(nc3ccccc13)OC(C(C)(O)CO)C2 (stereo not drawn)" data_value="> 20 µg/mL"
molecule=CCC[C@@H]1C[C@@H](C(=O)N[C@@H]([C@H]2O[C@H](SC)[C@H](O)[C@@H](O)[C@@H]2O)[C@@H](C)O)N(C)C1 data_value="11.6 µg/mL"
molecule="C[C@H]1O[C@@H](OC2CC[C@]3(C=O)[C@H]4CC[C@]5(C)[C@@H](C6=CC(=O)OC6)CC[C@]5(O)[C@@H]4CC[C@]3(O)C2)C[C@H](O)[C@@H]1O (stereo partly drawn)" data_value="> 20 µg/mL"
molecule=CC(=O)Nc1ccc(O)cc1 data_value="> 20 µg/mL"
molecule=O=C(CCCN1CCN(c2ccccn2)CC1)c1ccc(F)cc1 data_value="> 20 µg/mL"
